experiment: Quantitative High-Throughput drug screen in 47 multiple myeloma cell lines against the NCATS MIPE library collection: U266_ATCC cell viability assay (AID 1919864); details: U266 myeloma viability, CellTiter-Glo ATP luminescence, 48 h; series mostly up to 45.8 µM; note: potency is the fitted concentration of half-maximal effect; nearly all actives have a fitted effect of over 35% in size
Records with an inconclusive call do not appear. Active and inactive are the calls of the source. Calls come from the whole dose curve; as a rule, active = well fitted cell-killing curve with a large enough effect; inconclusive = small, poorly fitted or top-dose-only effect, or effect the other way; inactive = no such curve, though single readings can be large or run the other way.
Your reply should match one of these outcome classes. T (active), F (inactive)

Solved entries (count: 2):
Compound	Label value
O=C1NC(=O)C(=Cc2ccc3nccc(-c4ccncc4)c3c2)S1	T
CN[C@@H]1C[C@H]2O[C@@](C)([C@H]1OC)n1c3ccccc3c3c4c(c5c6ccccc6n2c5c31)C(=O)N[C@H]4O	T

Record request — test call for NC(=O)Nc1cc(-c2ccc(CN3CCOCC3)cc2)sc1C(N)=O T

Record request — test call for CC(C)[C@H](CO)Nc1nc(Nc2cccc(Cl)c2)c2ncn(C(C)C)c2n1 T

Record request — test call for O=C1CSC(=O)N1C(CCc1ccncc1)COc1ccc(-c2cccc([N+](=O)[O-])c2)cc1 (stereo not given) T

====

test: Quantitative High-Throughput drug screen in 47 multiple myeloma cell lines against the NCATS MIPE library collection: XG6_PLB cell viability assay (AID 1919865); conditions: XG6 myeloma viability, CellTiter-Glo ATP luminescence, 48 h; series mostly up to 45.8 µM; note: nearly all actives have a fitted effect of over 40% in size; note: potency is the fitted concentration of half-maximal effect
Records with an inconclusive call do not appear. Active and inactive are the calls of the source. Calls follow the shape of the dose curve; as a rule, active = well fitted cell-killing curve with a large enough effect; inconclusive = small, poorly fitted or top-dose-only effect, or effect the other way; inactive = no such curve, though single readings can be large or run the other way.
Readout kind: Potency

Take a look at these entries with their results.
Molecule	Potency
O=C(Nc1nnc(-c2ccco2)o1)c1cc(-c2ccccc2)nc2ccccc12	4.18 µM (active)
CCN(CC)Cc1ccc2cc(COC(=O)Nc3ccc(C(=O)NO)cc3)ccc2c1	1.66 µM (active)
O=C1NC(O)CCN1[C@@H]1O[C@H](CO)[C@H](O)[C@H]1O (stereo partly specified)	inactive
CCCCOc1ccc(C(=O)Nc2ccc(F)cc2F)cc1	inactive

I am curious: what Potency value has been reported for CCN(CC)CCNC(=O)c1c(C)[nH]c(C=C2C(=O)Nc3ccc(F)cc32)c1C ? 1.71 µM (active)

I am curious: what Potency value has been reported for Nc1ccn(C2CO[C@H](CO)O2)c(=O)n1 (stereo partly specified) ? inactive

I am curious: what Potency value has been reported for CCc1ccc(C(=O)Nc2cc(CN3CCN(C)CC3)cc(C(F)(F)F)c2)cc1C#Cc1cnc2ccnn2c1 ? 4.18 µM (active)

I am curious: what Potency value has been reported for NC[C@H]1O[C@H](O[C@H]2[C@@H](O)[C@@H](O[C@H]3O[C@H](CO)[C@@H](O)[C@H](N)[C@@H]3O)[C@H](N)C[C@@H]2N)[C@H](N)C[C@H]1O ? inactive

I am curious: what Potency value has been reported for CC(=O)N1CCN(c2ccc(OCc3nn(C)c(C)c3-c3cccc4c(CCCOc5cccc6ccccc56)c(C(=O)O)n(Cc5cccnc5)c34)cc2)CC1 ? 0.105 µM (active)

====

test: Quantitative High-Throughput drug screen in 47 multiple myeloma cell lines against the NCATS MIPE library collection: EJM_DSMZ cell viability assay (AID 1918926; note: nearly all actives have a fitted effect of over 30% in size); conditions: EJM myeloma cell viability, CellTiter-Glo ATP, 48 h; series mostly up to 45.8 µM
Results filed as inconclusive are left out. The source made the active and inactive calls. Calls follow the shape of the dose curve; as a rule, active = well fitted cell-killing curve with a large enough effect; inconclusive = small, poorly fitted or top-dose-only effect, or effect the other way; inactive = no such curve, though single readings can be large or run the other way.
Your reply should match one of these outcome classes. yes (1) for active, no (0) for inactive

Solved entries (count: 3):
Molecule	Label value
C[C@H]1[C@@H](OC(=O)CCC(=O)O)O[C@@H]2O[C@@]3(C)CC[C@@H]4[C@H](C)CC[C@@H]1[C@@]24OO3	yes (1)
C=CC(=O)Nc1cc(NC(=O)c2ccc(C)c(NC(=O)c3ccno3)c2)cc(C(F)(F)F)c1	yes (1)
Cn1cnc(=N)c2[nH]cnc21	yes (1)

Record request — test call for CN1[C@H]2CC(OC(=O)[C@@H](CO)c3ccccc3)C[C@H]1[C@H]1O[C@H]12 (stereo partly drawn) no (0)

Record request — test call for Cc1ccc([N+](=O)[O-])cc1S(=O)(=O)N(C)N=Cc1cnc2ccc(Br)cn12 yes (1)

Record request — test call for CC(=O)NCC(=O)N1[C@H]2CC[C@H]1c1cc(Nc3ncc(C(F)(F)F)c(NC4CCC4)n3)ccc12 yes (1)

Record request — test call for C[C@H](O)[C@@H]1C(=O)N2C(C(=O)O)=C(S[C@@H]3CN[C@H](CNS(N)(=O)=O)C3)[C@@H](C)[C@@H]12 no (0)

Record request — test call for N#Cc1c(C2CCNCC2)cc(-c2c(O)cccc2OCC2CC2)nc1N yes (1)

====

experiment: qHTS of pediatric cancer cell lines to identify multiple opportunities for drug repurposing: Primary screen for NB-EBc1 cells (AID 1347095); conditions: NB-EBc1 neuroblastoma viability, CellTiter-Glo luminescence, 48 h; series mostly up to 46 µM; note: potency is the fitted concentration of half-maximal effect
Results filed as inconclusive are left out. Activity calls are given as the source filed them. The call rests on the fitted dose curve; in most records, active means well fitted cell-killing curve with a large enough effect; inconclusive means small, poorly fitted or top-dose-only effect; inactive means no such curve, though single readings can be large or run the other way.
Readout kind: Potency

Take a look at these entries with their results.
Compound	Potency
CCNC(=O)c1cc2c(-c3cc(OCCN4CCCC4)c(Cl)cc3Cl)nc(N)nc2s1	935 nM (active)
C=CC[C@@H]1C=C(C)C[C@H](C)C[C@H](OC)[C@H]2O[C@@](O)(C(=O)C(=O)N3CCCC[C@H]3C(=O)O[C@H](C(C)=C[C@@H]3CC[C@H](O)[C@H](OC)C3)[C@@H](C)[C@@H](O)CC1=O)[C@@H](C)C[C@@H]2OC	inactive
CC(C)(O)[C@H]1CC[C@@](C)([C@H]2[C@@H](O)C[C@@]3(C)[C@@H]4C[C@H](O[C@@H]5O[C@H](CO)[C@@H](O)[C@H](O)[C@@H]5O)[C@H]5C(C)(C)[C@@H](O[C@@H]6OC[C@@H](O)[C@H](O)[C@@H]6O)CC[C@@]56C[C@@]46CC[C@]23C)O1	inactive
CCc1c(O)cc(O)c(C(=O)c2ccc(OCCN3CCOCC3)c(OC)c2)c1CC(=O)N(CCOC)CCOC	4180 nM (active)
C=CCNC1=C2C[C@@H](C)C[C@H](OC)[C@@H](O)[C@@H](C)C=C(C)[C@H](OC(N)=O)[C@@H](OC)C=CC=C(C)C(=O)NC(=CC1=O)C2=O	1480 nM (active)
Cn1cnc(=N)c2[nH]cnc21	662 nM (active)

I am curious: what Potency value has been reported for COC(=O)[C@@H]1CC2=CC(=O)CC[C@]2(C)[C@@]23O[C@@H]2C[C@@]2(C)[C@H](CC[C@@]24CCC(=O)O4)[C@@H]13 ? inactive

I am curious: what Potency value has been reported for CCc1nc(-c2cccc(C)c2)c(-c2ccnc(NC(=O)c3ccccc3)c2)s1 ? 20900 nM (active)

I am curious: what Potency value has been reported for Nc1ccc(C(=O)Nc2cccc(-c3nc(N4CCOCC4)c4oc5ncccc5c4n3)c2)cn1 ? 2350 nM (active)

====

Assay: Quantitative High-Throughput drug screen in 47 multiple myeloma cell lines against the NCATS MIPE library collection: KHM11_PLB cell viability assay (AID 1918962); note: nearly all actives have a fitted effect of over 35% in size
Settings: KHM11 myeloma cell viability, CellTiter-Glo ATP luminescence, 48 h; series mostly up to 45.8 µM
Text: PI: Beverly A. Mock Ph.D. Laboratory of Cancer Biology and Genetics, Center for Cancer Research, National Cancer Institute, National Institute of Health, Bethesda, Maryland […] 5; Detector; 425V; Luminescence; Viewlux PerkinElmer. […] 1. […] Briefly, the corresponding myeloma cell lines were screened in 1,536-well plates with 500 cells, 5-uL per well for inhibition of cell viability (assessed by measuring ATP levels with CellTiterGlo). […]
Results filed as inconclusive are left out. The source made the active and inactive calls. The call rests on the fitted dose curve; in most records, active means well fitted cell-killing curve with a large enough effect; inconclusive means small, poorly fitted or top-dose-only effect, or effect the other way; inactive means no such curve, though single readings can be large or run the other way.
Your reply should match one of these outcome classes. yes (1) = active, no (0) = inactive

Solved entries (count: 5):
Compound	Label value
C[C@H]1O[C@H](O[C@H]2[C@H](O)[C@@H](O)[C@@H](O[C@H]3[C@H](O)[C@@H](O)C(O)O[C@H]3CO)O[C@H]2CO)[C@H](O)[C@@H](O)[C@H]1N[C@H]1C=C(CO)[C@@H](O)[C@H](O)[C@@H]1O (stereo partly specified)	no (0)
O=C(C=CC=Cc1ccc2c(c1)OCO2)N1CCCCC1	no (0)
Cc1cnc(NC(=O)Nc2cc(Br)c(C)cc2OC[C@@H]2CNCCO2)cn1	yes (1)
CN(C)c1ccc(C(=O)NCCCCCCC(=O)NO)cc1	yes (1)
CC(C)N1[N]C(=C2C=c3cc(O)ccc3=N2)c2c(N)ncnc21	yes (1)

# input for lookup
Record request — test call for FC(F)c1nc2ccccc2n1-c1nc(N2CCOCC2)nc(N2CCOCC2)n1 yes (1)

====

assay: qHTS for identification of novel therapeutic agents for treatment of microphthalmiaassociated transcription factor (MiT) renal cell carcinoma (RCC) (AID 1963991); conditions: TFE3-RCC viability, CellTiter-Glo, 48 h; measured here: UOK145 Z-AUC; stronger effect = lower value;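 note: curves scaled with 100% = DMSO viability and 0% = empty wells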
Results filed as inconclusive are left out.
# if measured z-score < 0.4: y  # else: n

Compound	Label value
CN[C@H](CC(C)C)C(=O)N[C@H]1C(=O)N[C@@H](CC(N)=O)C(=O)N[C@@H]2C(=O)N[C@H]3C(=O)N[C@H](C(=O)N[C@H](C(=O)O)c4cc(O)cc(O)c4-c4cc3ccc4O)[C@H](O)c3ccc(c(Cl)c3)Oc3cc2cc(c3O[C@@H]2O[C@H](CO)[C@@H](O)[C@H](O)[C@@H]2O[C@H]2C[C@](C)(N)[C@H](O)[C@H](C)O2)Oc2ccc(cc2Cl)[C@H]1O	y
CC[C@H]1OC(=O)[C@H](C)[C@@H](O[C@H]2C[C@@](C)(OC)[C@@H](O)[C@H](C)O2)[C@H](C)[C@@H](O[C@@H]2O[C@@H](C)C[C@H](N(C)C)[C@@H]2O)[C@](C)(O)C[C@@H](C)C(=O)[C@H](C)[C@@H](O)[C@]1(C)O	n
C[C@H](CCC(=O)O)[C@H]1CCC2C3C[C@H](O)[C@@H]4C[C@H](O)CC[C@]4(C)C3CC[C@@]21C (stereo partly specified)	y

Is 0.4 strictly greater than the compound's reported z-score? compound: OC[C@@H](O)[C@@H](O)[C@H](O)[C@@H](O)CO n

Is 0.4 strictly greater than the compound's reported z-score? compound: Cc1onc(-c2ccccc2)c1C(=O)N[C@@H]1C(=O)N2[C@@H](C(=O)O)C(C)(C)S[C@@H]12 n

Is 0.4 strictly greater than the compound's reported z-score? compound: COc1ccc(C=Cc2cc(OC)c(OC)c(OC)c2)cc1NC(=O)[C@H](N)CO y

Is 0.4 strictly greater than the compound's reported z-score? compound: CN[C@@H]1C[C@H]2O[C@@](C)([C@H]1OC)n1c3ccccc3c3c4c(c5c6ccccc6n2c5c31)C(=O)N[C@H]4O y

Is 0.4 strictly greater than the compound's reported z-score? compound: Cc1cn([C@@H]2O[C@H](CO)[C@@H](O)[C@H]2F)c(=O)[nH]c1=O n

Is 0.4 strictly greater than the compound's reported z-score? compound: O=C1NC(=O)[C@@H](c2cn3c4c(cccc24)CCC3)[C@H]1c1c[nH]c2ccccc12 y

Is 0.4 strictly greater than the compound's reported z-score? compound: CC(=O)O[C@H]1C[C@@H]2CC[C@H]3[C@H]4C[C@H]([N+]5(C)CCCCC5)[C@@H](OC(C)=O)[C@@]4(C)CC[C@@H]3[C@@]2(C)C[C@H]1N1CCCCC1 y

Is 0.4 strictly greater than the compound's reported z-score? compound: CC(=O)C1=C(O)C=C2Oc3c(C(C)=O)c(O)c(C)c(O)c3C2(C)C1=O (stereo unspecified) y
